Reported Fig. 7a Th-T reading, mean of three wells is given for each of the following compounds.
tested_on: Aβ42 (Homo sapiens, UniProt P05067)
Sequence (P05067 672-713): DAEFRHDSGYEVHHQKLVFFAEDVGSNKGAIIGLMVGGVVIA
assay_text: Th-T (thioflavin-T) assay of Aβ42 aggregation
Type: biochemical
study_conditions: column suffix _20; reading M88
assay_endpoint: Fig. 7a Th-T reading, mean of three wells

compound: C=C1CCC2C(C)(CCC=C(C)C)C(O)CCC2(C)C1Cc1c(OC)oc(C)c(C(=O)OC)c1=O (centres unmarked) [Compound 14]
experimental_value: 1.862
--
compound: C=C1CC[C@@H]2[C@](C)(CC[C@H]3O[C@H](C=C(C)C)C[C@@]23C)[C@@H]1Cc1c(OC)oc(CO)c(C)c1=O [Compound 20]
experimental_value: 3.332
--
compound: C=C1CCC2C(C)(CCC=C(C)C)C(O)CCC2(C)C1Cc1c(OC)oc(CO)c(C(=O)OC)c1=O (centres unmarked) [Compound 13]
experimental_value: 1.0511
--
compound: C=C1CC[C@@H]2[C@](C)(CC[C@H]3O[C@H](C=C(C)C)C[C@@]23C)[C@@H]1Cc1c(OC)oc(CO)c(C(=O)OC)c1=O [Compound 21]
experimental_value: 0.6876
--
compound: C=C1CCC2C(C)(CCC=C(C)C)C(O)CCC2(C)C1Cc1c(OC)oc(CO)c(C)c1=O (centres unmarked) [Compound 12]
experimental_value: 2.109

###

tested_on: Aβ42 (Homo sapiens)
assay_text: Th-T (thioflavin-T) assay of Aβ42 aggregation
Format: biochemical
study_conditions: compound at 50; reading M42 of time course

compound: C=C1CC[C@@H]2[C@](C)(CC[C@H]3O[C@H](C=C(C)C)C[C@@]23C)[C@@H]1Cc1c(OC)oc(CO)c(C(=O)OC)c1=O [Compound 21]
Th-T fluorescence, mean of three wells: 0.2133

compound: C=C1CCC2C(C)(CCC=C(C)C)C(O)CCC2(C)C1Cc1c(OC)oc(C)c(C(=O)OC)c1=O (centres unmarked) [Compound 14]
Th-T fluorescence, mean of three wells: 4.376

compound: C=C1CC[C@@H]2[C@](C)(CC[C@H]3O[C@H](C=C(C)C)C[C@@]23C)[C@@H]1Cc1c(OC)oc(CO)c(C)c1=O [Compound 20]
Th-T fluorescence, mean of three wells: 2.134

compound: C=C1CCC2C(C)(CCC=C(C)C)C(O)CCC2(C)C1Cc1c(OC)oc(CO)c(C(=O)OC)c1=O (centres unmarked) [Compound 13]
Th-T fluorescence, mean of three wells: 0.4529

compound: C=C1CCC2C(C)(CCC=C(C)C)C(O)CCC2(C)C1Cc1c(OC)oc(CO)c(C)c1=O (centres unmarked) [Compound 12]
Th-T fluorescence, mean of three wells: 1.513

###

Reported values of Th-T assay plate reading, mean of three wells (Supplementary Fig. 47) for individual entries
tested_on: Aβ42 (Homo sapiens, UniProt P05067)
assay_text: Th-T (thioflavin-T) assay of Aβ42 aggregation
Type: biochemical
study_conditions: measurement M7; source data, Ab alone and No Ab as controls
assay_endpoint: Th-T assay plate reading, mean of three wells (Supplementary Fig. 47)

molecule: C=C1CCC2C(C)(CCC=C(C)C)C(O)CCC2(C)C1Cc1c(OC)oc(C)c(C)c1=O (centres unmarked) [Compound 15, viridoxin A hydrolysate]
experimental_value: 0.2421

molecule: C=C1CCC2C(C)(CC(=O)C=C(C)C)C(O)CCC2(C)C1Cc1c(OC)oc(C)c(C)c1=O (centres unmarked) [Compound 25]
experimental_value: 0.4804

molecule: C=C1CCC2C(C)(CCC=C(C)C)C(O)CCC2(C)C1Cc1c(O)c(C)c(C)oc1=O (centres unmarked) [Compound 4]
experimental_value: 0.6121

molecule: CC(C)=CCC/C(C)=C/CC/C(C)=C/CC/C(C)=C/Cc1c(O)c(C)c(C)oc1=O [Compound 2]
experimental_value: 0.6146

molecule: C=C1CCC2C3(C)CC(C=C(C)C)OC3CCC2(C)C1Cc1c(OC)oc(C)c(C)c1=O (centres unmarked) [Compound 23]
experimental_value: 0.3712

molecule: C=C1CCC2C(C)(CCC=C(C)C)C(O)CCC2(C)C1Cc1c(OC)oc(C)c(C(=O)OC)c1=O (centres unmarked) [Compound 14]
experimental_value: 0.2966

molecule: C=C1CC[C@@H]2[C@](C)(CC[C@H]3O[C@H](C=C(C)C)C[C@@]23C)[C@@H]1Cc1c(OC)oc(CO)c(C)c1=O [Compound 20]
experimental_value: 0.4602

molecule: C=C1CCC2C(C)(CC(=O)C=C(C)C)C(O)CCC2(C)C1Cc1c(OC)oc(CO)c(C)c1=O (centres unmarked) [Compound 19]
experimental_value: 0.5832

molecule: C=C1CCC2C(C)(CCC=C(C)C)C(=O)CCC2(C)C1Cc1c(O)c(C)c(C)oc1=O (centres unmarked) [Compound 8]
experimental_value: 0.3614

molecule: C=C1CC[C@H]2[C@]3(C)C[C@@H](C=C(C)C)O[C@H]3CC[C@]2(C)[C@@H]1Cc1c(OC)oc(CO)c(C)c1=O [Compound 17]
experimental_value: 0.5517

molecule: C=C1CC[C@@H]2[C@](C)(CC[C@H]3O[C@H](C=C(C)C)C[C@@]23C)[C@@H]1Cc1c(OC)oc(CO)c(C(=O)OC)c1=O [Compound 21]
experimental_value: 0.1997

molecule: C=C1CC[C@H]2[C@]3(C)C[C@@H](C=C(C)C)O[C@H]3CC[C@]2(C)[C@@H]1Cc1c(O)c(C)c(C)oc1=O [Compound 5, subglutinol A]
experimental_value: 0.5869

molecule: C=C1CC[C@H]2[C@]3(C)C[C@H](C=C(C)C)O[C@H]3CC[C@]2(C)[C@@H]1Cc1c(O)c(C)c(C)oc1=O [Compound 6, subglutinol B]
experimental_value: 0.512

molecule: C=C1CC[C@H]2[C@]3(C)C[C@H](C=C(C)C)O[C@H]3CC[C@]2(C)[C@@H]1Cc1c(OC)oc(CO)c(C)c1=O [Compound 18]
experimental_value: 0.43

###

Below is a list of entries, each paired with its recorded viability at 10 µM value.
assay_text: cytotoxicity in Drosophila l(2)mbn cells
Type: cell-based
study_conditions: Drosophila, l(2)mbn cells (larval blood cell-derived), 10 µM, replicate 1, relative to DMSO 1%, read-out: % viability, viability 1

compound: C=C1CCC2C3(C)CC(C=C(C)C)OC3CCC2(C)C1Cc1c(OC)oc(C)c(C)c1=O (stereo not drawn) [Compound 23]
viability at 10 µM (%): 7.01
--
compound: C=C1CC[C@@H]2[C@](C)(CC[C@H]3O[C@H](C=C(C)C)C[C@@]23C)[C@@H]1Cc1c(O)c(C)c(C)oc1=O [Compound 10, higginsianin A]
viability at 10 µM (%): 6.87
--
compound: C=C1CC[C@H]2[C@]3(C)C[C@@H](C=C(C)C)O[C@H]3CC[C@]2(C)[C@@H]1Cc1c(O)c(C)c(C)oc1=O [Compound 5, subglutinol A]
viability at 10 µM (%): 8.2
--
compound: C=C1CC[C@H]2[C@]3(C)C[C@H](C=C(C)C)O[C@H]3CC[C@]2(C)[C@@H]1Cc1c(O)c(C)c(C)oc1=O [Compound 6, subglutinol B]
viability at 10 µM (%): 8.78
--
compound: C=C1CCC2C(C)(CC(=O)C=C(C)C)C(O)CCC2(C)C1Cc1c(OC)oc(CO)c(C)c1=O (stereo not drawn) [Compound 19]
viability at 10 µM (%): 104
--
compound: C=C1CCC2C(C)(CCC=C(C)C)C(O)CCC2(C)C1Cc1c(OC)oc(CO)c(C)c1=O (stereo not drawn) [Compound 12]
viability at 10 µM (%): 7.07
--
compound: C=C1CC[C@@H]2[C@](C)(CC[C@H]3O[C@H](C=C(C)C)C[C@@]23C)[C@@H]1Cc1c(OC)oc(CO)c(C)c1=O [Compound 20]
viability at 10 µM (%): 1.88
--
compound: C=C1CC[C@H]2[C@]3(C)C[C@H](C=C(C)C)O[C@H]3CC[C@]2(C)[C@@H]1Cc1c(OC)oc(C)c(C)c1=O [Compound 24]
viability at 10 µM (%): 6.42
--
compound: C=C1CC[C@H]2[C@]3(C)C[C@H](C=C(C)C)O[C@H]3CC[C@]2(C)[C@@H]1Cc1c(OC)oc(CO)c(C)c1=O [Compound 18]
viability at 10 µM (%): 7.4
--
compound: C=C1CCC2C(C)(CCC=C(C)C)C(O)CCC2(C)C1Cc1c(OC)oc(C)c(C(=O)OC)c1=O (stereo not drawn) [Compound 14]
viability at 10 µM (%): 10.1
--
compound: C=C1CCC2C(C)(CCC=C(C)C)C(O)CCC2(C)C1Cc1c(OC)oc(CO)c(C(=O)OC)c1=O (stereo not drawn) [Compound 13]
viability at 10 µM (%): 20.9
--
compound: C=C1CCC2C(C)(CC(=O)C=C(C)C)C(O)CCC2(C)C1Cc1c(O)c(C)c(C)oc1=O (stereo not drawn) [Compound 7]
viability at 10 µM (%): 121
--
compound: C=C1CCC2C(C)(CC(=O)C=C(C)C)C(O)CCC2(C)C1Cc1c(OC)oc(C)c(C)c1=O (stereo not drawn) [Compound 25]
viability at 10 µM (%): 125
--
compound: C=C1CCC2C(C)(CCC=C(C)C)C(=O)CCC2(C)C1Cc1c(O)c(C)c(C)oc1=O (stereo not drawn) [Compound 8]
viability at 10 µM (%): 2.83
--
compound: C=C1CC[C@H]2[C@]3(C)C[C@@H](C=C(C)C)O[C@H]3CC[C@]2(C)[C@@H]1Cc1c(OC)oc(CO)c(C)c1=O [Compound 17]
viability at 10 µM (%): 1.94
